System: ncRNAs (SEQ ID NO 28-89)
Assay: ncRNA arrays of melanocytes, keratinocytes, normal skin, melanoma cell lines and patient samples
Set-up: species or system human
Settings: melanoma patient 5 sample compared to normal skin
# Lookup of reported ncRNA array expression, patient 5 keyed by entry
I'd appreciate a reply containing only the number, no unit.

- substance: "SEQ ID NO 80 (CACACAGCCCAGTCTGCCTGTGATGGTAATATAAATCAAACCAGGGACCCAAGAGCCCAG; listed as DNA, chemistry not given here; listed as Homo sapiens)"
  ncRNA array expression, patient 5: "−1.208"
- substance: "SEQ ID NO 47 (GTATTTGTAATATTTGATTTGCTTTTAGCAGAGAAAACAATAAAAGAATCCAGGAAAAGT; listed as DNA, chemistry not given here; listed as Homo sapiens)"
  ncRNA array expression, patient 5: "−2.234"
- substance: "SEQ ID NO 62 (AATCGTTAATATCATTGATATTAAGTAATTTCCCCACTCTGAGTGAATACTTTGATGATG; listed as DNA, chemistry not given here; listed as Homo sapiens)"
  ncRNA array expression, patient 5: 1.994
- substance: "SEQ ID NO 67 (TTCCCTATTCCATCCTTTGATGGGTGGCCTGTTACACGTTTGGAAATAAAAACAAGTGGG; listed as DNA, chemistry not given here; listed as Homo sapiens)"
  ncRNA array expression, patient 5: 4.146

In: # ncRNA array expression, patient 5 lookup, item SEQ ID NO 76 (TGTTTCTAATGCATACTGTGAAAGGAAAAAAAATCACAGTTATCCACCTTCTCAGGGCCT; listed as DNA, chemistry not given here; listed as Homo sapiens)
Out: −1.036

In: Same question, SEQ ID NO 39 (TGATCCTGTAAATCATGTTTTTGTTTATTCCCCAACACTAACCTCACTCCTTTACTATTC; listed as DNA, chemistry not given here; listed as Homo sapiens) this time
Out: −1.017

In: Same question, SEQ ID NO 84 (TTATTAAAAGGACTGAGGATCATGTGTGTTGGTGTGTCCCGGAGTCTGCTCTAAGGTAAA; listed as DNA, chemistry not given here; listed as Homo sapiens) this time
Out: 0.9959

In: Same question, SEQ ID NO 65 (CACCGTTTTACTTTTTGTGGGGAGGGGAAGCAGTATCAAAATTTCTTCGGGCGCCAGAAC; listed as DNA, chemistry not given here; listed as Homo sapiens) this time
Out: −1.301

In: Same question, SEQ ID NO 29 (TTAAATACATGTTTCTAATATTTTAGTGTTTTGTATTTAGGTTATTTATTCTTTGTATCT; DNA, backbone and methylation of C not given here; listed as Homo sapiens) this time
Out: 2.59

In: Same question, SEQ ID NO 58 (ATTTATTTGACTCTAAAATGACAATATAACAACTATAAGGAATTGATATGATGTCCTTAC; listed as DNA, chemistry not given here; listed as Homo sapiens) this time
Out: −1.707

====

Tested on: ncRNAs (SEQ ID NO 28-89)
Experiment: ncRNA arrays of melanocytes, keratinocytes, normal skin, melanoma cell lines and patient samples
Design: species or system human
Settings: melanoma patient 28 sample compared to normal skin
Doc: threshold 1 (exclusive). Items with ncRNA array expression, patient 28 beneath it return MET; others return NOT MET.

Previously resolved entries follow.
- substance: "SEQ ID NO 72 (AATTACATATATTTAGCAGGATTTTTATTTGCCGTGATATATAGGATAATTTAGTCTTTG; listed as DNA, chemistry not given here; listed as Homo sapiens)"
  measurement-target: "ncRNAs (SEQ ID NO 28-89)"
  group: "NOT MET"
- substance: "SEQ ID NO 44 (AGCCAACTCACGCTTAGGGAGAACTCATACCGCCTAAATATAAAGGCAATTATATATATA; listed as DNA, chemistry not given here; listed as Homo sapiens)"
  measurement-target: "ncRNAs (SEQ ID NO 28-89)"
  group: "MET"
- substance: "SEQ ID NO 36 (TATTTGTGACTAACTGTATAACAGGTTATTTTAGTTTCTGTTCTGTGGGAAGTGTAAAGC; listed as DNA, chemistry not given here; listed as Homo sapiens)"
  measurement-target: "ncRNAs (SEQ ID NO 28-89)"
  group: "NOT MET"

Please look at the following substance next.
In: Is 1 strictly greater than the substance's reported ncRNA array expression, patient 28? substance: SEQ ID NO 75 (CAAGTGGGAAGAAAAAGAGCCCTACGTGGTGACATTCTGGAAGGATATCATGGATGATTG; listed as DNA, chemistry not given here; listed as Homo sapiens)
Out: NOT MET
